Data provenance: patent US5789434A

Molecular target: MMP-9 (Homo sapiens)
Construct: from tissue; host or cells: human polymorphonuclear leukocytes (PMN) from whole blood (New York Blood Center), PMA-stimulated supernatant
Sequence (P14780 107-707 limits assumed): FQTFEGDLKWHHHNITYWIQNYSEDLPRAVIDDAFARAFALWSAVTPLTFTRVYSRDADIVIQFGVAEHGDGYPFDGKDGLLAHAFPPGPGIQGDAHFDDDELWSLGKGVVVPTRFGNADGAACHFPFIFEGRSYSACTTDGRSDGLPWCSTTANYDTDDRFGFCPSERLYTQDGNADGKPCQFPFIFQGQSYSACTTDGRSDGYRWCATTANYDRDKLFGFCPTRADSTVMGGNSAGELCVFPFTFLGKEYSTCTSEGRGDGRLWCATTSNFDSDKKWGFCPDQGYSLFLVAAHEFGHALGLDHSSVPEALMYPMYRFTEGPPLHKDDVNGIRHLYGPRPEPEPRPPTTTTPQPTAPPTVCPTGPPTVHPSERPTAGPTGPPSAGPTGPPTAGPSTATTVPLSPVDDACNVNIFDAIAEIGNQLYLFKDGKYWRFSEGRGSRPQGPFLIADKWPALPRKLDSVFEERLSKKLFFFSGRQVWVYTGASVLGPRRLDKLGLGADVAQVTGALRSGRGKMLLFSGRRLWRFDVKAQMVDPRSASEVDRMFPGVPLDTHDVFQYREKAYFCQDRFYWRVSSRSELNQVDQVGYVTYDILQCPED
Experiment: Thiopeptilide MMP-9 Inhibition Assay
Assay type: biochemical
Conditions: pH 6.5; x (n) = average of n determinations; read-out: MMP-9: Thiopep. IC50
metric: pIC50
The scale used: pIC50 is minus the common logarithm of the concentration in molar units.

Qu. Give its pIC50 value. Item: O=C(CC(CSc1cccc(F)c1)C(=O)O)c1ccc(-c2ccc(Cl)cc2)cc1 (stereo not shown)
Ans. 6.07

Qu. Now the same for O=C(CC(CSc1cccc2cccnc12)C(=O)O)c1ccc(-c2ccc(Cl)cc2)cc1 (stereo not shown)
Ans. 6.47

Qu. // next record O=C(O)[C@@H]1CCC[C@H]1C(=O)c1ccc(-c2ccc(Cl)cc2)cc1 (relative stereo)
Ans. 6.04

Qu. Do the same for O=C(CC(CCCc1ccccc1)C(=O)O)c1ccc(-c2ccc([N+](=O)[O-])cc2)cc1 (stereo not shown) please
Ans. 6.30
